Reference for the values: patent US20230110188A1

- target: T1, Human MuSK (R&D Systems, cat. 10189-MK, histidine tag) (human, UniProt O15146 24-495)
- T1 construct: Bought protein; also called human monomeric MuSK-6xhis; not shown: histidine tag (6xhis)
- T1 sequence: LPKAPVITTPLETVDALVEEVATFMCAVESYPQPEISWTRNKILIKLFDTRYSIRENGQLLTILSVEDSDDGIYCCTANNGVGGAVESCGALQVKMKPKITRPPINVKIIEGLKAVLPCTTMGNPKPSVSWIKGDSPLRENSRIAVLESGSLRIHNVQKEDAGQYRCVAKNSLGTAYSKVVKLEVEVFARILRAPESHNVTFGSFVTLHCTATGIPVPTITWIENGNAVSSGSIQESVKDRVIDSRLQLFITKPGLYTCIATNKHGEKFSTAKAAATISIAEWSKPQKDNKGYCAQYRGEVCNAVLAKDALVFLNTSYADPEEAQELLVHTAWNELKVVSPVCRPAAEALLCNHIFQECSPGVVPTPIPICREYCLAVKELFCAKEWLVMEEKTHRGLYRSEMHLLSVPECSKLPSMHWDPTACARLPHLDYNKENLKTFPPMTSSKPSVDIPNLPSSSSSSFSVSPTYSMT
- test-protocol: SPR (Biacore), koff at pH 5.5 over koff at pH 7.4
Reported values of Fold difference (5.5/7.4) of koff for individual entries
metric-name: Fold difference (5.5/7.4) of koff (fold)

>>> recorded_result("4D3 (antibody, human IgG1, kappa, L234A L235A, V domains shown) VH: EVQLVESGGGLVKPGGSLRLSCAASGFTFSSYTMTWVRQAPGKGLEWVSSISSGGHYIYYTDSLKGRFTISRDNAKNSLYLQMNSLRAEDTAVYYCARERLLRLGVGFDFWGQGTLVTVSS VL: DIQMTQSPSSLSASVGDRVTITCRASQSISGYLNWYQQKPGKAPKLLIYAASTLQSGVPSRFSGSGSGTDFTLTISSLQPEDFATYYCQQSYSALYTFGQGTKLEIKR")
1.1
>>> recorded_result("3D10a (antibody, human IgG1, kappa, L234A L235A, V domains shown) VH: EVQLVESGGGLVKPGGSLRLSCAASGFTFSASTMAWVRQAPGKGLEWVSSVSGDSHHIYYADSLKGRFTISRDNAKNSLYLQMNSLRAEDTAVYYCARERLLRLGVGFDSWGQGTLVTVSS VL: DIQMTQSPSSLSASVGDRVTITCRASQRISGFVNWYQQKPGKAPKLLIYAASTLQSGVPSRFSGSGSGTDFTLTISSLQPEDFATYYCQQSYSPLYTFGQGTKLEIKR")
0.6
>>> recorded_result("3D9b (antibody, human IgG1, kappa, L234A L235A, V domains shown) VH: EVQLVESGGGLVKPGGSLRLSCAASGFTFSTYTMHWVRQAPGKGLEWVSSISSRSAYKYYADSVKGRFTISRDNAKNSLYLQMNSLRAEDTAVYYCARDFFQLGPPRFDSWGQGTLVTVSS VL: DIQMTQSPSSLSASVGDRVTITCRASQRISSFLNWYQQKPGKAPKLLIYGASNLQSGVPSRFSGSGSGTDFTLTISSLQPEDFATYYCQQSYSPSYTFGQGTKLEIKR")
0.3
>>> recorded_result("3F6c (antibody, human IgG1, kappa, L234A L235A, V domains shown) VH: EVQLVESGGGLVKPGGSLRLSCAASGFTFSSYTMDWVRQAPGKGLEWVSSIGSNGDYIYYADSVRGRFTISRDNAKNSLYLQMNSLRAEDTAVYYCARGQLAVAGTHFDYWGQGTLVTVSS VL: DIQMTQSPSSLSASVGDRVTITCRASQKVNKYVNWYQQKPGKAPKLLIYAASTLQSGVPSRFSGSGSGTDFTLTISSLQPEDFATYYCQQSYSPLSTFGQGTKLEIKR")
2.5
